Origin of measurements: patent US8263643B2

# Ratio for inhibition by 50% (IR50), membrane fusion per record follows
# ASSAYED SYSTEM: membrane fusion caused by SNARE (SNAP25, syntaxin 1A, VAMP2) (UniProt P60879+P63045+Q16623)
# Construct: made in house; host or cells: E. coli (Codon (+) RIL, Novagen)
# Sequence (P60879 whole entry, the tested form may be a part): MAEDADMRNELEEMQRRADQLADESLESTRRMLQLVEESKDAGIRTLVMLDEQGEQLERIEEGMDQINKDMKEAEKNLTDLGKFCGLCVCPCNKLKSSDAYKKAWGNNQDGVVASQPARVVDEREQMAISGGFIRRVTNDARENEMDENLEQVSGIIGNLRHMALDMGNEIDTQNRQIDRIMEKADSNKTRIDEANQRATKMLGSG
# Sequence (Q16623 whole entry, the tested form may be a part): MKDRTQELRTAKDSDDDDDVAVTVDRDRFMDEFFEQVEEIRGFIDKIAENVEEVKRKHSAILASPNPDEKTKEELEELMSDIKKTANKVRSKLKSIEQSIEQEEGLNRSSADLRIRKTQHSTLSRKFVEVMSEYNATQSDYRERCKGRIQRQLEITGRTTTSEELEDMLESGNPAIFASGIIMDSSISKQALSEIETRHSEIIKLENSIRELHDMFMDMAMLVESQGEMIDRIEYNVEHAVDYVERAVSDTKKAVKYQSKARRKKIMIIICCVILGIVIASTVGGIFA
# Sequence (P63045 whole entry, the tested form may be a part): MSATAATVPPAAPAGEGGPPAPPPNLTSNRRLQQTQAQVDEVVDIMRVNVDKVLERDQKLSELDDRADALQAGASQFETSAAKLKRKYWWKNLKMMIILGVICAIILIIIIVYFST
# TEST NAME: Membrane fusion assay with SNARE-reconstituted liposomes (fluorescence)
# Assay type: biochemical
# APPLIED CONDITIONS: molar concentration ratio phenolic compound:SNAP-25; average of at least three measurements
In your answer, state the number alone without any accompanying words.

1. O=c1c(O)c(-c2cc(O)c(O)c(O)c2)oc2cc(O)cc(O)c12 [Myricetin] : 0.79

Ratio for inhibition by 50% (IR50), membrane fusion for O=c1c(O)c(-c2ccc(O)c(O)c2)oc2cc(O)cc(O)c12 [Quercetin] is 2.87

Reported Ratio for inhibition by 50% (IR50), membrane fusion for O=c1oc2c(O)c(O)cc3c(=O)oc4c(O)c(O)cc1c4c23 [Ellagic acid] was 7.31

Record O=C(/C=C/c1ccc(O)c(O)c1)c1ccc(O)cc1O [Butein] , field Ratio for inhibition by 50% (IR50), membrane fusion: 0.81

Given item O=c1cc(-c2ccc(O)c(O)c2)oc2cc(O)cc(O)c12 [Luteolin] , the value recorded as its Ratio for inhibition by 50% (IR50), membrane fusion is 4.02
